Every entry's value here was drawn from patent US10947242B2.

Quick list: log10(IC50) per entry.
Molecular target: Human recombinant PDE10A (hPDE10A) (Homo sapiens, UniProt Q9Y233)
Construct: His tag (inferred from metal chelate purification); made in house; host or cells: Sf9 insect cells (baculovirus)
Sequence (Q9Y233 267-1055): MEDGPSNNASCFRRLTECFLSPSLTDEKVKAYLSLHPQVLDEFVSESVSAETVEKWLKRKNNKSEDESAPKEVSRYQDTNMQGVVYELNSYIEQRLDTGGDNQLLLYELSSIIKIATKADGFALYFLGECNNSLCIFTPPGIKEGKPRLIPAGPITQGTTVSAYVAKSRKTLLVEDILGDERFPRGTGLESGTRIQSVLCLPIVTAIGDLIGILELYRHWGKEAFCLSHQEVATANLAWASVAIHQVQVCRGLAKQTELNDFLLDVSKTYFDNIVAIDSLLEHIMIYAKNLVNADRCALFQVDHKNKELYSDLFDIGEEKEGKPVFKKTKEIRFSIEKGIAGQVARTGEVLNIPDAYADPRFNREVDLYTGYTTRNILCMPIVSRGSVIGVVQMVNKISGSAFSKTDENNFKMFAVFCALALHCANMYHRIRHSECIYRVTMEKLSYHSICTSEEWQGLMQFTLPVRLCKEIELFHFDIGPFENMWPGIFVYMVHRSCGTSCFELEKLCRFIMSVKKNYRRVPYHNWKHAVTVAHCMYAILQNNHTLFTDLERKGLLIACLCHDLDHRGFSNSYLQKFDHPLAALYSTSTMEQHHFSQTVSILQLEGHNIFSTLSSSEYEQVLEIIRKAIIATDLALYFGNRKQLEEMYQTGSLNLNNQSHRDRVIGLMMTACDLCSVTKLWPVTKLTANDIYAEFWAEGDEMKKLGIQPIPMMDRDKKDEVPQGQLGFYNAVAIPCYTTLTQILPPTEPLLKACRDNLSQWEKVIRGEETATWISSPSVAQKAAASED
Experiment: In vitro assay PDE10A, human clone (SPA, 3H-cAMP hydrolysis)
Assay type: biochemical
Conditions: human clone by default (no (r) mark); read-out: hPDE10A2 or rPDE10A2 pIC50 (converted)
Would you kindly interpret these values as log10 of IC50 expressed in µM?

Study these solved cases before continuing.
Cc1cc(C(=O)N2[C@H]3CC[C@H](c4cc(C(F)F)nc5ncnn45)[C@@H]2CC3)cc(OC(F)F)n1 [Compound 293]: 0.01
O=C(c1ccc2ncccc2c1)N1[C@H]2CC[C@H](c3cc(C(F)F)nc4ncnn34)[C@@H]1CC2 [Compound 311]: -0.37
Cc1cc(C)cc(C(=O)N2[C@H]3CC[C@H](c4cc(C(F)F)nc5ncnn45)[C@@H]2CC3)c1 [Compound 302]: -0.05

May I ask what log10(IC50) has been recorded for COc1cc(C(=O)N2CC[C@@H](C)[C@H](c3cc(C)nc4ncnn34)C2)c(F)cn1 [Compound 225] ?
-1.03

May I ask what log10(IC50) has been recorded for Cc1nc(C(=O)N2CC[C@H](C)[C@H](c3cc(C(F)F)nc4ncnn34)C2)ccc1F [Compound 223] ?
0.54

May I ask what log10(IC50) has been recorded for COc1cc(C(=O)N2CC[C@@H](C)[C@H](c3cc(C(F)F)nc4ncnn34)C2)c(F)c(C)n1 [Compound 398] ?
-0.23

May I ask what log10(IC50) has been recorded for COc1c(F)cc(C(=O)N2[C@H]3CC[C@H](c4cc(C(F)F)nc5ncnn45)[C@@H]2CC3)cc1F [Compound 359] ?
0.33

May I ask what log10(IC50) has been recorded for Cc1ccc(C(=O)N2[C@H]3CC[C@H](c4cc(C(F)F)nc5ncnn45)[C@@H]2CC3)cc1Cl [Compound 369] ?
-0.14

====

Quick list: IC50 per entry.
Molecular target: Human recombinant PDE3A (hPDE3A) (Homo sapiens, UniProt Q14432)
Construct: purchased Scottish Biomedical; host or cells: Sf9 insect cells
Sequence (Q14432 whole entry): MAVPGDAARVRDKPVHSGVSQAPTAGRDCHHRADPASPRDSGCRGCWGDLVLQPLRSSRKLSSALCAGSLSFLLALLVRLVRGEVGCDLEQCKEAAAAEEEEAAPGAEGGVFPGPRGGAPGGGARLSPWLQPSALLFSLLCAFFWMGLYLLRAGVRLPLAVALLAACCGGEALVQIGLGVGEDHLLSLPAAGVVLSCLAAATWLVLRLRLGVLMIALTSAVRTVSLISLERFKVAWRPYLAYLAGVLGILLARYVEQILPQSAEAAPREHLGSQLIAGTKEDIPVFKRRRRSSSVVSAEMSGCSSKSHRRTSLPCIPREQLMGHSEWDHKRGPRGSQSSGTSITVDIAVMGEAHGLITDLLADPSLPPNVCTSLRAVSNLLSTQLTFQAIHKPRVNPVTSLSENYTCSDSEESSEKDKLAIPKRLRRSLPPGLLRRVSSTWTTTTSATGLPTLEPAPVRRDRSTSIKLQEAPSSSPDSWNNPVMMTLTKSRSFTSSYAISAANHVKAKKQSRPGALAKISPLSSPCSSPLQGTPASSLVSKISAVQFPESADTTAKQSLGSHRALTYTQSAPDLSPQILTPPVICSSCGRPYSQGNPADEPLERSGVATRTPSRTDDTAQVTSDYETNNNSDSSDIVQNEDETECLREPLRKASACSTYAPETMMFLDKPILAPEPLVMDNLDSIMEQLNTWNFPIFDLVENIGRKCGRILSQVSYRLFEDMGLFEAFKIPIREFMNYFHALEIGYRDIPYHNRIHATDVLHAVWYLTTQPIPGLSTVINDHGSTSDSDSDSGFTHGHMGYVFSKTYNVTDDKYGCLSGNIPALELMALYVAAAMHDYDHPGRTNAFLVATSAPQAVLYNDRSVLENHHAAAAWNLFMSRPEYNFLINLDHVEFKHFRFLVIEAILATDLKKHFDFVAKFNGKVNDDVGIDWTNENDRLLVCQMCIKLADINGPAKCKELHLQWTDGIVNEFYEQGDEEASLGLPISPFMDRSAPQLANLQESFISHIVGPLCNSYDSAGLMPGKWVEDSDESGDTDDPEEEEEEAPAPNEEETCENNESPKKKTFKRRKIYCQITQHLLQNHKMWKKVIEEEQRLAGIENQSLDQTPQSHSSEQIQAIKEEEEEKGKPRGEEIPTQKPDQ
Assay: In vitro assay PDE3A (SPA, 3H-cAMP hydrolysis);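 note: the method names PDE3A and the table heading PDE3B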
Format: biochemical
Conditions: hPDE3B pIC50; read-out: pIC50 (converted)
Number in µM, nothing else.

Cc1ccc(C(=O)N2[C@H]3CC[C@H](c4cc(C(F)F)nc5ncnn45)[C@@H]2CC3)s1: 4.79
C[C@@H]1CCN(C(=O)c2ccc3c(c2)OCCC3)C[C@H]1c1cc(C(F)F)nc2ncnn12: 0.398
C/C(=C\c1ccccc1)C(=O)N1[C@H]2CC[C@H](c3cc(C(F)F)nc4ncnn34)[C@@H]1CC2: 0.389
Cc1nc2cc(C(=O)N3CC[C@@H](C)[C@H](c4cc(C(F)F)nc5ncnn45)C3)ccc2o1: 1.55

May I ask what IC50 has been recorded for COc1ccc2c(c1)cc(C(=O)N1CC[C@@H](C)[C@H](c3cc(C(F)F)nc4ncnn34)C1)n2C ?
0.269

May I ask what IC50 has been recorded for C[C@@H]1CCN(C(=O)c2ccc(O)c(C#N)c2)C[C@H]1c1cc(C(F)F)nc2ncnn12 ?
9.12

May I ask what IC50 has been recorded for C[C@@H]1CCN(C(=O)c2ccc(F)c(C(F)(F)F)c2)C[C@H]1c1cc(C(F)F)nc2ncnn12 ?
4.57

May I ask what IC50 has been recorded for C[C@@H]1CCN(C(=O)c2cc(C(C)(C)C)nc(C(C)(C)C)c2)C[C@H]1c1cc(C(F)F)nc2ncnn12 ?
5.37

May I ask what IC50 has been recorded for Cc1ccc(C(=O)N2[C@H]3CC[C@H](c4cc(C(F)F)nc5ncnn45)[C@@H]2CC3)cc1Cl ?
3.72

May I ask what IC50 has been recorded for Cc1nc2ccc(C(=O)N3CC[C@@H](C)[C@H](c4cc(C(F)F)nc5ncnn45)C3)cc2o1 ?
0.437

====

Quick list: Emax per entry.
Biological target: Human recombinant PDE2A (hPDE2A) (Homo sapiens)
Construct: His tag (inferred from metal chelate purification); made in house; host or cells: Sf9 insect cells (baculovirus)
Sequence (O00408 whole entry): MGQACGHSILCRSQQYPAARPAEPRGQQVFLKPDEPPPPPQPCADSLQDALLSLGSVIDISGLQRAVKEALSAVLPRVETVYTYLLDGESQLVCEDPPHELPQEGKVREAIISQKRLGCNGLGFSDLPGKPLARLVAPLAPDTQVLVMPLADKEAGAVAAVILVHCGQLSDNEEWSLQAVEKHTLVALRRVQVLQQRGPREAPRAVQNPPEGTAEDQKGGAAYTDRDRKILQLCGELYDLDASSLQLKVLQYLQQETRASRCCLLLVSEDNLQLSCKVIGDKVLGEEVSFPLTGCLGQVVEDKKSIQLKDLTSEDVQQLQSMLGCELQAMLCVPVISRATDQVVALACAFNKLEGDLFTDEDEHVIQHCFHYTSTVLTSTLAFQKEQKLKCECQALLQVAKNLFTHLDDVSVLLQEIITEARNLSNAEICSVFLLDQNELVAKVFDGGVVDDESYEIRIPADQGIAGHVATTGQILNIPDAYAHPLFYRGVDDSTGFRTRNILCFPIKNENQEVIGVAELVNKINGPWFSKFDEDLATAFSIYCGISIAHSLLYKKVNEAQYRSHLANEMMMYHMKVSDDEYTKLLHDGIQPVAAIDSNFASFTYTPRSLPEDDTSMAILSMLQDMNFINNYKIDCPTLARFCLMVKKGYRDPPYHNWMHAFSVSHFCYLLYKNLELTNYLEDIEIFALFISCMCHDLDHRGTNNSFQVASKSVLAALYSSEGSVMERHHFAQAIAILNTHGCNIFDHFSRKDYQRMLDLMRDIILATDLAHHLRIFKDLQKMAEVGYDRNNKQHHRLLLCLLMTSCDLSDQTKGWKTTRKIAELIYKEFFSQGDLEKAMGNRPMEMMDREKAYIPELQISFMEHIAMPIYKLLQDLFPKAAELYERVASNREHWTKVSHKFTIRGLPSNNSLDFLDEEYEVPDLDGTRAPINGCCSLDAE
Assay: In vitro assay PDE2A (SPA, 3H-cGMP hydrolysis)
Format: biochemical
Details: read-out: hPDE2A Emax
Number in %, nothing else.

Study these solved cases before continuing.
Cc1ncc(C(=O)N2CC[C@@H](C)[C@H](c3cc(C(F)F)nc4ncnn34)C2)cn1 [Compound 244]: 92
Cn1cnc2cc(C(=O)N3[C@H]4CC[C@H](c5cc(C(F)F)nc6ncnn56)[C@@H]3CC4)ccc21 [Compound 379]: 102
Cc1cc(C(=O)N2[C@H]3CC[C@H](c4cc(C(F)F)nc5ncnn45)[C@@H]2CC3)c(F)c(C)n1 [Compound 400]: 99

May I ask what Emax has been recorded for Cc1cc(C(=O)N2[C@H]3CC[C@H](c4cc(C(F)F)nc5ncnn45)[C@@H]2CC3)cnc1C [Compound 366] ?
99

May I ask what Emax has been recorded for Cc1cc(C(=O)N2[C@H]3CC[C@H](c4cc(C(F)F)nc5ncnn45)[C@@H]2CC3)cc(C(F)(F)F)n1 [Compound 286] ?
101

May I ask what Emax has been recorded for Cc1ccc(C(=O)N2[C@H]3CC[C@H](c4cc(C(F)F)nc5ncnn45)[C@@H]2CC3)s1 [Compound 349] ?
102

May I ask what Emax has been recorded for Cc1cc(C(=O)N2CC[C@@H](C)[C@H](c3cc(C(F)F)nc4ncnn34)C2)cc(F)c1F [Compound 189] ?
100

====

Molecular target: Human recombinant PDE3A (hPDE3A) (Homo sapiens)
Construct: purchased Scottish Biomedical; host or cells: Sf9 insect cells
Test: In vitro assay PDE3A (SPA, 3H-cAMP hydrolysis);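 note: the method names PDE3A and the table heading PDE3B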
Assay type: biochemical
Details: read-out: hPDE3B Emax; read-out: Emax
measured-property: Emax (%)
Number in %, nothing else.

Study these solved cases before continuing.
Cc1nc2ccc(C(=O)N3CC[C@@H](C)[C@H](c4cc(C(F)F)nc5ncnn45)C3)cc2o1 [Compound 127]: 94
Cc1cc(C(=O)N2CC[C@@H](C)[C@H](c3cc(C(F)F)nc4ncnn34)C2)c(Cl)cn1 [Compound 51]: 44
Cc1cc([C@@H]2CN(C(=O)c3cc(Cl)ncc3C(F)(F)F)CC[C@H]2C)n2ncnc2n1 [Compound 270]: 29

In the following, a different compound is considered.
May I ask what Emax has been recorded for Cc1cc([C@@H]2CN(C(=O)c3cccc4nc(C)oc34)CC[C@H]2C)n2ncnc2n1 [Compound 19] ?
79

====

Target: Human recombinant PDE3A (hPDE3A) (Homo sapiens, UniProt Q14432)
Construct: purchased Scottish Biomedical; host or cells: Sf9 insect cells
Test: In vitro assay PDE3A (SPA, 3H-cAMP hydrolysis);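 note: the method names PDE3A and the table heading PDE3B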
Type: biochemical
Details: read-out: hPDE3B Emax; read-out: Emax
Quick list: Emax per entry.
Number in %, nothing else.

May I ask what Emax has been recorded for O=C(c1cccc2ncccc12)N1[C@H]2CC[C@H](c3cc(C(F)F)nc4ncnn34)[C@@H]1CC2 ?
20

May I ask what Emax has been recorded for Cc1cc(C(=O)N2CC[C@@H](C)[C@H](c3cc(C(F)F)nc4ncnn34)C2)c(C(F)(F)F)cn1 ?
17

May I ask what Emax has been recorded for C[C@@H]1CCN(C(=O)c2ccc(C(F)(F)F)nc2)C[C@H]1c1cc(C(F)F)nc2ncnn12 ?
64

====

Target: Human recombinant PDE10A (hPDE10A) (Homo sapiens)
Construct: His tag (inferred from metal chelate purification); made in house; host or cells: Sf9 insect cells (baculovirus)
Experiment: In vitro assay PDE10A, human clone (SPA, 3H-cAMP hydrolysis)
Format: biochemical
Conditions: human clone (h), default; read-out: hPDE10A2 pIC50 (converted)
Output True for records whose IC50 is lower than 2000 nM, False for records at or above 2000 nM.

Observe how each entry below is paired with its result.
Cc1c(C(=O)N2CC[C@@H](C)[C@H](c3cc(C(F)F)nc4ncnn34)C2)sc2ccccc12: True
Cc1nc2cc(C(=O)N3CC[C@@H](C)[C@H](c4cc(C(F)F)nc5ncnn45)C3)ccc2o1: True
Cc1cc([C@@H]2CN(C(=O)c3cc(Cl)ncc3Cl)CC[C@H]2C)n2ncnc2n1: True
C[C@@H]1CCN(C(=O)c2ccncc2C(F)(F)F)C[C@H]1c1cc(C(F)F)nc2ncnn12: False
CCCC[C@H]1CCN(C(=O)c2cc(C)nc(C)c2)C[C@H]1c1cc(C(F)F)nc2ncnn12 (mixture of isomers): False

Could you please tell me whether IC50 recorded for C[C@@H]1CCN(C(=O)c2csc(N)n2)C[C@H]1c1cc(C(F)F)nc2ncnn12 is less than 2000 nM?
False

Could you please tell me whether IC50 recorded for C[C@@H]1CCN(C(=O)c2cc(-c3ccco3)nn2C)C[C@H]1c1cc(C(F)F)nc2ncnn12 is less than 2000 nM?
True

Could you please tell me whether IC50 recorded for COc1cc(C(=O)N2CC[C@@H](C)[C@H](c3cc(C(F)F)nc4ncnn34)C2)nc2ccccc12 is less than 2000 nM?
True

Could you please tell me whether IC50 recorded for C[C@@H]1CCN(C(=O)c2ccc3c(c2)OCCC3)C[C@H]1c1cc(C(F)F)nc2ncnn12 is less than 2000 nM?
True

Could you please tell me whether IC50 recorded for Cc1cc([C@@H]2CN(C(=O)c3ccc(C(C)(C)C)o3)CC[C@H]2C)n2ncnc2n1 is less than 2000 nM?
True

Could you please tell me whether IC50 recorded for Cc1cc(C(=O)N2CC[C@@H](C)[C@H](c3cc(C(F)F)nc4ncnn34)C2)no1 is less than 2000 nM?
False
